Every entry's value here was drawn from the supplement of paper PMC6555819.

# Tested on: VDR:RXRa (NR concentration 270 nM, RXRa partner concentration 90 nM)
# RUN DESCRIPTION: PBM binding z-score (relative to random genomic background probes); higher = stronger binding; sequences stand for … in GC…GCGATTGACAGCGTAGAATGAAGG
# if value of PBM binding z-score reaches 1, tag met; if it stays below, tag not met

SEQUENCE CODE | ASSAY TARGET | CLASS LABEL
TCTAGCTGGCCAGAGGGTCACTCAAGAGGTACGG | VDR:RXRa (NR concentration 270 nM, RXRa partner concentration 90 nM) | met
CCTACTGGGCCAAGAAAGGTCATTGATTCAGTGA | VDR:RXRa (NR concentration 270 nM, RXRa partner concentration 90 nM) | met
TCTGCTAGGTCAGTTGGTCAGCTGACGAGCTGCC | VDR:RXRa (NR concentration 270 nM, RXRa partner concentration 90 nM) | not met
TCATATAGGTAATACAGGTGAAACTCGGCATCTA | VDR:RXRa (NR concentration 270 nM, RXRa partner concentration 90 nM) | met
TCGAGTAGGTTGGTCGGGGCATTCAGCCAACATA | VDR:RXRa (NR concentration 270 nM, RXRa partner concentration 90 nM) | not met
CCTGCTAGGTGAATGGTCAGCTAAAGCAGCTCGC | VDR:RXRa (NR concentration 270 nM, RXRa partner concentration 90 nM) | not met
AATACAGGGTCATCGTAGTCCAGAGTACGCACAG | VDR:RXRa (NR concentration 270 nM, RXRa partner concentration 90 nM) | met
